Target protein (sequence): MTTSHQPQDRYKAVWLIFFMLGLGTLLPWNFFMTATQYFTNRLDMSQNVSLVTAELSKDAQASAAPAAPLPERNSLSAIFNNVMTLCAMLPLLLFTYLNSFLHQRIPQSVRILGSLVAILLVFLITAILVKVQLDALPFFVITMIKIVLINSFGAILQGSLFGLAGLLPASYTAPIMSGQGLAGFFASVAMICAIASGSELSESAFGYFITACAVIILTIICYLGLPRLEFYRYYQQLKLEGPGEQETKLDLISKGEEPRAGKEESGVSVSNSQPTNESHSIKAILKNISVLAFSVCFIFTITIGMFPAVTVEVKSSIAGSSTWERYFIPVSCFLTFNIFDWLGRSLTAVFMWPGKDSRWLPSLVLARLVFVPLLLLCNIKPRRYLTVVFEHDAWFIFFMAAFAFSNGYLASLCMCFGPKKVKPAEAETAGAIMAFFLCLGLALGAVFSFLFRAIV
Property: IC50; scope: individual compounds

Solved cases below.
- compound: "COc1cc2cc(c1OC)OCCCC(OC(=O)NCC(=O)N1CCOCC1)CCN1CCCN(CCCNC2=O)CC1 (stereo not shown)"
  IC50: "20 to 500 nM"
- compound: "COc1cc(C(=O)OC2CCCOc3cc(cc(OC)c3OC)COCCCN3CCCN(CC2)CC3)cc(OC)c1OC (racemic)"
  IC50: "< 1 nM"
- compound: "COc1cc2cc(c1OC)OCCCC(n1ncc(-c3ccccc3)n1)CCN1CCCN(CCCOC2=O)CC1 (stereo not shown)"
  IC50: "1 to 20 nM"
- compound: "COc1cc2cc(c1OC)OCCCC(OC(=O)c1cn(C)nn1)CCN1CCCN(CCCOC2=O)CC1 (stereo not shown)"
  IC50: "1 to 20 nM"
- compound: "COc1cc(C(=O)OC2CCCOc3cc(cc(OC)c3OC)C(=O)NCCN3CCCN(CC2)CC3)cc(OC)c1OC (stereo not shown)"
  IC50: "1 to 20 nM"
- compound: "COc1cc(C(=O)OC2CCCOc3cc(cc(OC)c3OC)C#CCCS(=O)(=O)N3CCCN(CC2)CC3)cc(OC)c1OC (stereo not shown)"
  IC50: "20 to 500 nM"

Continue with the compound presented below.
For the compound COc1cc2cc(c1OC)OCCCC(OC(=O)c1ccnn1C)CCN1CCCN(CCCOC2=O)CC1 (stereo not shown) , give its measured IC50 value.
1 to 20 nM
